Assay: melting temperature; fluorescence melt of hairpins on a sequencing array, two-state fit, raised by 9.35 °C to match UV melts
Conditions: sodium 0.088 M
observed_property: Tm (°C)
I only need the number, in °C, no unit after it.

Input GATCTGAGTGCAGATC ((((((....)))))) , output reported Tm.
49.2

# return recorded Tm for input GAAGGGCGAAAGCCTTTC (((.(((....))).)))
49.4

Input GGTTACCCGAAAGGGACC (((..(((....)))))) , output reported Tm.
35.2

Fill in reported Tm for this entry: AGAAGCAGAAATGGTTCT ((((.((....)).))))
34.5

Answer with the recorded Tm of GAAAACGGAAACGTTCTC ((.((((....)))).)) only.
30.4

Provide one value: measured Tm of GAACTAGGAAACTAGTCC (.(((((....))))).)
29.7

Name the recorded Tm of the sequence listed here: GCTGGCCCGAAAGGGAGC (((..(((....))))))
44

# return recorded Tm for entry GCTCCGTCGAAAGACAGC (((..(((....))))))
32.4

Complete the entry with Tm for GTTCTTGAAAAAGAAC ((((((....))))))
46.9

Consider the sequence GCCGGAGGAAACTCCGAC (.(((((....))))).) . State its measured Tm.
49.9

Supply reported Tm belonging to this sequence: GATCGGCCGACCGATC ((((((....))))))
57.9

Find the measured Tm of GTTCTCCGAAAGGACAAC (((.(((....))).))) and report it.
30

Give a short answer stating reported Tm for GACTGGGAAACCAGTC ((((((....)))))) .
60.1

Name the recorded Tm of the item GCTTTCCGAAAGGAGAGC (((.(((....))).))) in your answer.
54.8

Quickly give me recorded Tm for GGATTACGAAAGTATTCC (((.(((....))).)))
44

###

Kindly state folding enthalpy for each of the entries shown.
Assay: folding enthalpy; higher = less favourable; fluorescence melt of hairpins on a sequencing array, two-state fit
Conditions: sodium 0.088 M
The reply should contain only the number, in kcal/mol.

For CCTACGAAAGTAGG (((((....))))) , write its folding enthalpy.
-20.4

Identify measured folding enthalpy associated with GTCTCCGCGAAAGCGGAC (((..(((....))))))
-6.7

Identify measured folding enthalpy corresponding to GCGTGGCACGC ((((...))))
-31.8

Given GTGCAGGAAACTGCAC ((((((....)))))) , respond with its folding enthalpy.
-35.9

Give me measured folding enthalpy, please, for this sequence: CTCACGAAAGTGAG (((((....)))))
-22.2

Please supply the value of reported folding enthalpy for the item GATCTGCCAACAGATC ((((((....))))))
-38.3

Please report folding enthalpy for the following sequence: GTGGTGGGAAACTACCGC (.(((.(....).))).)
-28.4

Look up and report measured folding enthalpy for this entry: GTTTCGGGAAACCGAAAC (((((((....)))))))
-40.2

Provide one value: measured folding enthalpy of GCCGGAGGAAACTCCGAC (.(((((....))))).)
-13.1

###

Assay: folding enthalpy; higher = less favourable; fluorescence melt of hairpins on a sequencing array, two-state fit
Conditions: sodium 0.088 M
observed_property: folding enthalpy (kcal/mol)
The response must be a number in kcal/mol with no trailing unit.

Look up and state reported folding enthalpy for GATCGAGTCATCGATC ((((((....))))))
-35.4

Report folding enthalpy for GCACACCCGAAAGGGTGC (((..(((....))))))
-5.94

Please supply the value of reported folding enthalpy for the item GCCTACGAAAGTATGGC ((((((....))).)))
-24.6

Quickly give me recorded folding enthalpy for GCGATTGGAAACAATCAC (.(((((....))))).)
-19.7

Answer with the recorded folding enthalpy of GTAGGCGGAAACGTCTAC ((((.((....)).)))) only.
-39.1

Note down folding enthalpy recorded for GATCTGAGAGCAGATC ((((((....))))))
-37.2

Identify measured folding enthalpy associated with GACTTAGAAATAAGTC ((((((....))))))
-30

Look up folding enthalpy of GGGTGGGGAAACCCATCC ((.((((....)))).)) and report it.
-34.7

Give recorded folding enthalpy. GGATTCGAAAGAAATCC ((((((....))).)))
-24.1

Supply recorded folding enthalpy for GCAGTTGGAAACGATTGC (((.(.(....).).))) here.
-20.5

For the sequence GCGAATGGTCGC ((((....)))) , give its reported folding enthalpy.
-10.4

Provide measured folding enthalpy value, entry: GCGCGGCGAAAGCCCCGC (((.(((....))).)))
-37.7

Kindly indicate its recorded folding enthalpy. Item: GATCCGTTTCCGGATC ((((((....))))))
-41.2

Please supply the value of reported folding enthalpy for the item GGAGTAGGAAACTGCTTC (.((.((....)).)).)
-32.7

Please look at this sequence and report its folding enthalpy: GGAGCACGAAAGTGTTCC (((.(((....))).)))
-39.8

Provide only the value of recorded folding enthalpy for GAGATTCCGAAAGGACTC (((..(((....))))))
-12.2

Name the recorded folding enthalpy of the sequence listed here: GATCTGTTCCCAGATC ((((((....))))))
-33.7

Identify measured folding enthalpy corresponding to GTCATGGGAAACCATGAC (((((((....)))))))
-44.5

For GATCCCCAGAGGGATC ((((((....)))))) , write its folding enthalpy.
-31.7

Could you please provide reported folding enthalpy for GCCGGGCGAAAGCACAGC ((.(.((....)).).)) ? Thanks!
-16.9

Indicate the recorded folding enthalpy value for this sequence: GTACGTGGAAACACACAC ((..(((....)))..))
-10.8

For the sequence GCAACCGGAAACGGTCAC (..((((....))))..) , give its measured folding enthalpy value.
-8.88

Please give measured folding enthalpy of the following entry: GGCAACGAAAGTTCGGCC ((((((....)))..)))
-25.2

For the sequence GATCAATTGGTTGATC ((((((....)))))) , give its reported folding enthalpy.
-40.5

Given the sequence GCGGCCACCCGC ((((....)))) , write its reported folding enthalpy.
-19.8

Give folding enthalpy for GAAAACGCGAAAGCGTTC (((..(((....))))))
-8.84

State its folding enthalpy for this sequence: GTTTTCCGAAAGGATAAC (((.(((....))).)))
-28.4

Could you please provide reported folding enthalpy for GATCCTGAGAAGGATC ((((((....)))))) ? Thanks!
-40.2

Complete the entry with folding enthalpy for GATCACATTCGTGATC ((((((....))))))
-39.2

Consider the sequence GATCCTTACCAGGATC ((((((....)))))) and give its recorded folding enthalpy.
-33.6

Fill in folding enthalpy for record GCGCTAGGAAACTAGCAC (.(((((....))))).)
-15.4

Provide only the value of recorded folding enthalpy for GCGGATCGAAAGATGCGC (((.(((....))).)))
-38.6

Answer with reported folding enthalpy of GCCAGCGAAAGCTGTGGC ((((((....)))..)))
-15.1

Provide one value: measured folding enthalpy of GCATACGAAAGTAATTGC ((((((....)))..)))
-13.6

Using the record for GCATGGGCGAAAGCCTGC (((..(((....)))))) , state its measured folding enthalpy.
-16.3

Return reported folding enthalpy. Input sequence: GCTGTCCGAAAGGAAAGC (((.(((....))).)))
-37.8

Item GCATGGGGAAACCCACAC (..((((....))))..) : provide folding enthalpy
-14.2

###

Exercise: for every item that follows, state its recorded folding enthalpy.
Assay: folding enthalpy; higher = less favourable; fluorescence melt of hairpins on a sequencing array, two-state fit
Details: sodium 0.088 M
Numbers only here, please. The scale is kcal/mol.

Complete the entry with folding enthalpy for GACTACGAAAGTATTGTC ((((((....)))..)))
-15.2

Report folding enthalpy, nothing else, for this sequence: GGTGGCGGAAACGCTACC (((.(((....))).)))
-39.8

Please list folding enthalpy recorded for the sequence GCTCGGGGAAACCTGAGC ((((.((....)).))))
-35.1

Quickly give me recorded folding enthalpy for GAACTTGGAAACAAGTCC (.(((((....))))).)
-16.4

Return the recorded folding enthalpy value; entry: GATCGTTTAGACGATC ((((((....))))))
-38.2

Kindly indicate its recorded folding enthalpy. Item: GTGGCGGGAAACCGCTGC (..((((....))))..)
-15.4

Supply reported folding enthalpy belonging to this sequence: GCCTCACGAAAGTGTGGC (((.(((....))).)))
-43.5

Read off the recorded folding enthalpy for GCTAGGGGAAACTCTGGC ((.((.(....).)).))
-23.9

Let me know recorded folding enthalpy for GGGCTGTCGAAAGACCCC (((..(((....)))))) , thanks.
-18.4

Tell me its folding enthalpy given GTTCTCGAAAGAGGTAAC ((((((....)))..))) as the entry.
-8.25

State its folding enthalpy for this sequence: GGGGTAGGAAACTATCCC (((.(((....))).)))
-38.4

Quote folding enthalpy reported for GAGACCGAAAGGTACTC ((((((....))).))) please.
-17.5

Query folding enthalpy for GTAATGCGAAAGCAATAC (((.(((....))).)))
-20

Using the record for GGAGTACGAAAGTAATCC (((.(((....))).))) , state its measured folding enthalpy.
-31

Tell me its folding enthalpy given GGTAGTCGAAAGACAACC (((.(((....))).))) as the entry.
-25.2

Quickly give me recorded folding enthalpy for GAGCACGAAAGTGGTCTC ((((((....)))..)))
-24

Report folding enthalpy for GCATTGCGAAAGCGCTGC (((..((....))..)))
-18.8

# return recorded folding enthalpy for entry GGACGTCCGAAAGGATCC (((..(((....))))))
-14.9

Supply folding enthalpy value. Item: GTCGCCGGAAACGGCAAC ((.((((....)))).))
-11.2

Give the reported folding enthalpy for this sequence. GTTCACGAAAGTGTCAAC ((((((....)))..)))
-10.7

Given the sequence GATCGGCCGACCGATC ((((((....)))))) , write its reported folding enthalpy.
-34.6

Give the reported folding enthalpy for this sequence. GCGACATTCGC ((((...))))
-14

Indicate the recorded folding enthalpy value for this sequence: GCCCCTACGAAAGTAGGC (((..(((....))))))
-6.61

For the sequence GAGCTCACGAAAGTGCTC (((..(((....)))))) , report folding enthalpy.
-20.8

Tell me its folding enthalpy given GTATCACGAAAGTGGTAC (((.(((....))).))) as the entry.
-27.9

State its folding enthalpy for this sequence: GCTTCGGCGAAAGCCAGC (((..(((....))))))
-10.3

Note folding enthalpy for the sequence shown: GCTTACGAAAGTACAAGC ((((((....)))..)))
-20

State its folding enthalpy for this sequence: GGTGATGCGAAAGCAACC (((..(((....))))))
-13.7

State, in one line, measured folding enthalpy of GCTAGGCGAAAGCCTCGC ((.((((....)))).))
-17.8

Determine its reported folding enthalpy: CGCGGAACCGTCCGCG ((((((....))))))
-31.9

Return the recorded folding enthalpy value; entry: GGGCCACCGAAAGGTCCC (((..(((....))))))
-17.8

State, in one line, measured folding enthalpy of GATCCGCAGCGGATC ((((((...))))))
-54.5

Provide one value: measured folding enthalpy of GCGGCCGAAAGGCACCGC ((((((....)))..)))
-16.8

Answer with the recorded folding enthalpy of GAGTATGGAAACATACCC (.(((((....))))).) only.
-19.4

Given GGGCACGAAAGTGATCCC ((((((....)))..))) , respond with its folding enthalpy.
-19.4

Input GCATGGGAAACCATGC ((((((....)))))) , output reported folding enthalpy.
-34.4

Quick one: give measured folding enthalpy for GACATCGGAAACGGTGTC ((((.((....)).))))
-47

Determine from records and report folding enthalpy for GTTCGGCGAAAGCCAAAC (((.(((....))).)))
-15.5

Answer with the recorded folding enthalpy of GTGTGAGGAAACTTACGC (.((.((....)).)).) only.
-17.7

Identify measured folding enthalpy corresponding to GTCCTCGAAAGAGATGAC ((((((....)))..)))
-16.2

Read off the recorded folding enthalpy for CGGCCGGAAACGGACCCG ((((((....)))..)))
-12.1
